- Tested on: XIP peptide (Xip251-270) binding
- method-description: small-molecule binders of XIP peptide, primary screen, biochemical, small-molecule microarray, fluorescence 635/667 nm, 0.1 µg/mL protein (AID 1182)
- measurement-parameters: fluorescent protein binding, 635 nm, higher = more signal, called active from +8 up or from −8 down
observed-property: composite z-score

molecule	target-system	observed-property	measurement
CC(C)C(CO)N1C(=O)[C@]2(C)C3C(=O)OCCC/C=C\[C@H]3OC23C=CCN(c2ccc(Cl)cc2)C(=O)[C@@H]13 (some centres not stated)	XIP peptide (Xip251-270) binding	composite z-score	0.172
COC(=O)[C@@]1(Cc2ccccc2)[C@H]2c3cc(C(=O)N4CCCC4)n(Cc4cc(F)cc5c4OCOC5)c3C[C@H]2CN1C(=O)c1ccccc1	XIP peptide (Xip251-270) binding	composite z-score	0.766
CC(C)C(O)C1C=CC2C(=O)N(C)C(=O)C2N1N(c1ccccc1)c1ccccc1 (configuration not stated)	XIP peptide (Xip251-270) binding	composite z-score	0.618
COC(=O)C[C@H]1O[C@]2(C(=O)N(C)c3ccccc32)[C@@H](C)[C@@H]1[Si](C)(C)c1ccc(C)cc1	XIP peptide (Xip251-270) binding	composite z-score	0.611
O=C1c2ccccc2[C@](Cc2ccccc2I)(C(=O)NCc2ccccc2)[C@H](c2ccc(CO)cc2)N1C1CCCCC1	XIP peptide (Xip251-270) binding	composite z-score	0.353
COCCOC(=O)N1C(=O)[C@@]2(c3cc(C#CC4(O)CCCCCC4)ccc31)[C@H](c1ccccc1OCCO)N1[C@H](c3ccccc3)[C@H](c3ccccc3)OC(=O)[C@H]1[C@@H]2C(N)=O	XIP peptide (Xip251-270) binding	composite z-score	0.151
COc1ccc([Si](C)(C)[C@H]2[C@H](CCO)O[C@@]3(C(=O)N(Cc4cccc(N5CCCCC5=O)c4)c4ccccc43)[C@@H]2C)cc1	XIP peptide (Xip251-270) binding	composite z-score	1.41
